assay: Selectivity ratio of IC50 for human HeLa cells to IC50 for multidrug sensitive Plasmodium falciparum HB3; assay type: ADME, cell-based; details: HeLa cells versus Plasmodium falciparum HB3, read-out: Ratio IC50
outcome.measure: selectivity ratio

Looking for the measured selectivity ratio of C=C(C)[C@@H]1CC[C@]2(CO)CC[C@]3(C)[C@H](CC[C@@H]4[C@@]5(C)CC[C@H](O)[C@@](C)(COC(=O)/C=C/c6ccc(O)c(OC)c6)[C@@H]5CC[C@]43C)[C@@H]12 (stereo in doubt; 3) , can you help?
> 40

Given CC(=O)O[C@@H]1[C@@H](OC(=O)/C=C/c2ccc(O)cc2)[C@H](Oc2c(-c3ccc(O)cc3)oc3cc(O)cc(O)c3c2=O)O[C@H](COC(=O)/C=C/c2ccc(O)cc2)[C@H]1OC(C)=O , state its recorded selectivity ratio.
< 5

Could you tell me which selectivity ratio is on file for C=C(C)[C@@H]1CC[C@]2(CO)CC[C@]3(C)[C@H](CC[C@@H]4[C@@]5(C)CC[C@H](O)[C@@](C)(CO)[C@@H]5CC[C@]43C)[C@@H]12 ?
> 5.9

----------
Record form. Attribute: Ratio IC50. Fill in for each entry.
assay: Resistance index, ratio of IC50 for multidrug resistant Plasmodium falciparum NHP1337 to IC50 for multidrug sensitive Plasmodium falciparum HB3; type: functional
Enter the number alone.

Can you look up the measured Ratio IC50 of C[C@@H]1O[C@@H](Oc2c(-c3ccc(O)cc3)oc3cc(O)cc(O)c3c2=O)[C@H](OC(=O)/C=C\c2ccc(O)cc2)[C@H](OC(=O)/C=C\c2ccc(O)cc2)[C@H]1O for me?
3.9

# Ratio IC50 lookup, item C=C(C)[C@@H]1CC[C@]2(CO)CC[C@]3(C)[C@H](CC[C@@H]4[C@@]5(C)CC[C@H](O)[C@@](C)(COC(=O)/C=C\c6ccc(O)cc6)[C@@H]5CC[C@]43C)[C@@H]12
1.9

Consider the molecule C=C(C)[C@@H]1CC[C@]2(CO)CC[C@]3(C)[C@H](CC[C@@H]4[C@@]5(C)CC[C@H](OC(=O)/C=C/c6ccc(O)c(OC)c6)[C@@](C)(CO)[C@@H]5CC[C@]43C)[C@@H]12 and give its measured Ratio IC50.
0.8

----------
assay: Selectivity ratio of IC50 for human HeLa cells to IC50 for multidrug resistant Plasmodium falciparum NHP1337; type: ADME, cell-based; conditions: HeLa cells versus Plasmodium falciparum NHP1337, read-out: Ratio IC50
Record form. Attribute: selectivity ratio. Fill in for each entry.

Value lookup for selectivity ratio; key = CC(=O)O[C@@H]1[C@@H](OC(=O)/C=C/c2ccc(O)cc2)[C@H](Oc2c(-c3ccc(O)cc3)oc3cc(O)cc(O)c3c2=O)O[C@H](COC(=O)/C=C\c2ccc(O)cc2)[C@H]1OC(C)=O
< 0.8

Would you mind telling me what selectivity ratio value was observed for C=C(C)[C@@H]1CC[C@]2(CO)CC[C@]3(C)[C@H](CC[C@@H]4[C@@]5(C)CC[C@H](O)[C@@](C)(CO)[C@@H]5CC[C@]43C)[C@@H]12 ?
> 3.8

Need selectivity ratio of CC(=O)O[C@@H]1[C@@H](OC(=O)/C=C/c2ccc(O)cc2)[C@H](Oc2c(-c3ccc(O)cc3)oc3cc(O)cc(O)c3c2=O)O[C@H](COC(=O)/C=C/c2ccc(O)cc2)[C@H]1OC(C)=O , thanks.
< 1.4
